Some binders, each annotated with its measured Fold increase in potency compared to 6C7H5.
Target: human CD33 on primary human dendritic cells (human, UniProt P20138 18-364)
Sequence (P20138 18-364): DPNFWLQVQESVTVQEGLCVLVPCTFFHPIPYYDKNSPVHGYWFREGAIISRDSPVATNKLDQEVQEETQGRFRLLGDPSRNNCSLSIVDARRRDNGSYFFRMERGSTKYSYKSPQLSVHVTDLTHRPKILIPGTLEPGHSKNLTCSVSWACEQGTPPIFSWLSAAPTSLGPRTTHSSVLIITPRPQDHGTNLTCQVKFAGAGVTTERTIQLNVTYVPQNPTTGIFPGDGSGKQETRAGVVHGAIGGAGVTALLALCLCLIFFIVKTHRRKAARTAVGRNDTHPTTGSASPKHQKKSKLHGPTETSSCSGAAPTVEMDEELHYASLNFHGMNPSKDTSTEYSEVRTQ
Test: cell-based or functional assay
Provide the reading as a plain figure in fold.

>>> recorded_value("anti-CD33 antibody 6C7H8 (antibody, IgG1, V domains shown, VH/VL only; also called 6C7H8 IgG1; parental antibody) VH: EVQLVESGGGLVQPGGSLRLSCAGSGFTFSNYCMNWVRQAPGKGLEWVAEIRLKSNNYVTNYAASVKGRFTISRDDSKNSVYLQMNSLKTEDTGVYYCTRAGYYVPFAYWGQGTLVTVSS VL: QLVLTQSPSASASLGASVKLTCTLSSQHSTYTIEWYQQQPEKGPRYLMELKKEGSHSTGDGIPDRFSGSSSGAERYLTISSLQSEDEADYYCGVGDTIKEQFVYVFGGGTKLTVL")
0.5

Consider the additional binder presented here.
Request: Give reported Fold increase in potency compared to 6C7H5 value for anti-CD33 antibody 6C7H25 (antibody, V domains shown, VH/VL only) VH: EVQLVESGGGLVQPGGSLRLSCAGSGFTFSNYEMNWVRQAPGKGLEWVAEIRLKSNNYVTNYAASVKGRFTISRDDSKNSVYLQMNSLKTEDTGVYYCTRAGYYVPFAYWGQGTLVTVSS VL: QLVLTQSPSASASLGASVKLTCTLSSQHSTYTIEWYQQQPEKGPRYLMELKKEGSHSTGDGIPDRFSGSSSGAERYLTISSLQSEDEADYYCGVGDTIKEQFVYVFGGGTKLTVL
Response: 1.6
